All values here come from patent US12275686B2.

Reported values of NO release amount (%) for individual entries
Tested on: H9c2 cells
Protocol description: NO release level in H9c2 cells under normoxia or hypoxia, Griess method
Assay type: cell-based
Reported conditions: H9c2 cells, 4 h, normoxia (21% O2), compound 15 μM
Answer with a number only, understood to be in %.

CN(N=O)c1ccc(OC(=O)OCc2ccc([N+](=O)[O-])cc2Cl)cc1
0.93
CN(N=O)c1ccc(OC(=O)OCc2ccc([N+](=O)[O-])cc2)cc1
0.16
CN(N=O)c1ccc(OC(=O)OCc2ccccc2[N+](=O)[O-])cc1
0.98

Exercise: Give NO release amount (%) only, for Cc1cc([N+](=O)[O-])ccc1COC(=O)Oc1ccc(N(C)N=O)cc1 , using H9c2 cells data.
Solution: 0.32
